B1: 3'-5' exoribonuclease 1, residues 65 to 114; numbered along this chain, Q8IV48 (parent)
chain: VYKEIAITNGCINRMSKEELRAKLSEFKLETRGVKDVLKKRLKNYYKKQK

Variants of: B1
Assay: abundance fitness (aPCA) (normalised: wild type 0, dead -1); higher = more abundant; growth selection in yeast, the domain comes from the species named
Conditions: Homo sapiens
Answer not fulfilled if abundance fitness is under -0.2, and fulfilled if it is -0.2 or more.

>  <biosequence>
VYKEIAITNGCINRMSKEELRAKLSEFKLETRGVKDVLNKRLKNYYKKQK

>  <class_assignment>
not fulfilled

$$$$
>  <biosequence>
VYKEIAITNGCINRMSKQELRAKLSEFKLETRGVKDVLKKRLKNYYKKQK

>  <class_assignment>
fulfilled

$$$$
>  <biosequence>
VYKEIAMTNGCINRMSKEELRAKLSEFKLETRGVKDVLKKRLKNYYKKQK

>  <class_assignment>
fulfilled

$$$$
>  <biosequence>
VYKEIAITNGCINRMSKEELRAKLSEFKLETRGVKDYLKKRLKNYYKKQK

>  <class_assignment>
not fulfilled

$$$$
>  <biosequence>
VYKEIAITNGCINRMSKEELRTKLSEFKLETRGVKDVLKKRLKNYYKKQK

>  <class_assignment>
fulfilled

$$$$
>  <biosequence>
VYKEIAITNGCINRMSKEELRAKLSCFKLETRGVKDVLKKRLKNYYKKQK

>  <class_assignment>
not fulfilled

$$$$
>  <biosequence>
VYEEIAITNGCINRMSKEELRAKLSEFKLETRGVKDVLKKRLKNYYKKQK

>  <class_assignment>
fulfilled

$$$$
>  <biosequence>
VYKEIAITNGCINRMSKEELRAKDSEFKLETRGVKDVLKKRLKNYYKKQK

>  <class_assignment>
not fulfilled

$$$$
>  <biosequence>
VYKEIAITNGCINRMSKEELRAKLSKFKLETRGVKDVLKKRLKNYYKKQK

>  <class_assignment>
not fulfilled

$$$$
>  <biosequence>
VYKEQAITNGCINRMSKEELRAKLSEFKLETRGVKDVLKKRLKNYYKKQK

>  <class_assignment>
fulfilled

$$$$

# check: abundance fitness of `VYKEIAITNGCINRMSKEELRAKLSEFKLELRGVKDVLKKRLKNYYKKQK` is greater than or equal to -0.2
not fulfilled

Given the entry `VYKEIAITNGCINRMSKEELRAKPSEFKLETRGVKDVLKKRLKNYYKKQK` , answer whether its abundance fitness meets or surpasses -0.2.
not fulfilled

Quick check, abundance fitness >= -0.2? `VYKEIAITNGCINRMSKEELRAKLTEFKLETRGVKDVLKKRLKNYYKKQK`
fulfilled

API: above_or_equal(metric=abundance fitness, cutoff=-0.2) for item `VYKEIAITNGCINRMSKEELRAKLNEFKLETRGVKDVLKKRLKNYYKKQK`
fulfilled

Item `VYKQIAITNGCINRMSKEELRAKLSEFKLETRGVKDVLKKRLKNYYKKQK` with abundance fitness of -0.2 or above?
fulfilled
